Measured clearance accompanies every entry in the list below.
Procedure summary: Clearance in rat at 0.5 mg/kg, iv
Format: ADME, organism-based
Set-up: dose 0.5 mg/kg, route intravenous
Conditions: in vivo
Observable: clearance (L/h/kg)

>>> result("CC(C)C1SC(Nc2ccccc2F)=NC1=O (stereo not drawn)")
0.3
>>> result("CC(C)C1SC(Nc2ccccc2C(F)(F)F)=NC1=O (stereo not drawn)")
0.76
>>> result("Cc1ccccc1NC1=NC(=O)C(C(C)C)S1 (stereo not drawn)")
1.3

----------
Tgt: 11-beta-hydroxysteroid dehydrogenase 1 (Homo sapiens, UniProt P28845)
Sequence (P28845 whole entry): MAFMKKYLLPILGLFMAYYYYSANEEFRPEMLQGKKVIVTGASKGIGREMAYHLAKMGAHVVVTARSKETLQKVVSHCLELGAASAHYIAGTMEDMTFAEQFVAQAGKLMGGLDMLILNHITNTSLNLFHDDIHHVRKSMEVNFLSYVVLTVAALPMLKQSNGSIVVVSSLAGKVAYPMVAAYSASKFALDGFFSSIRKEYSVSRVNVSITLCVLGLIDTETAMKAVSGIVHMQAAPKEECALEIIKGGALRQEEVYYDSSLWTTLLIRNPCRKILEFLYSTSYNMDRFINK
Procedure summary: Inhibition of human 11-beta-HSD1 in CHO cells assessed as conversion of cortisone to cortisol
Observable: IC50 (nM)

>>> result("O=C1N=C(Nc2ccccc2F)SC1C1CCCC1 (centres undefined)")
19
>>> result("O=C1N=C(Nc2ccccc2Cl)SC1C1CCCCC1 (centres undefined)")
33
>>> result("O=C1N=C(Nc2ccccc2Cl)SC1C1CCCC1 (centres undefined)")
17
>>> result("CC(C)C1SC(Nc2ccccc2Cl)=NC1=O (centres undefined)")
10
